B1: SNAP91 (parent)
chain: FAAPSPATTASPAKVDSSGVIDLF

- Variants of: B1
- Test details: protein stability index of a GFP-peptide fusion (GPS, HEK-293T) (PSI 1-6); higher = more stable;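 also: lentivirally expressed fusions sorted by FACS into six bins by GFP to DsRed ratio, PSI derived from sequencing read proportions per bin multiplied by bin number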
- Setup conditions: c terminus: a fixed tail appended
Let's look at some variants and their measured protein stability index.
Measured attribute: protein stability index

1. D16P
2.19
2. F1G
4.43
3. D16R
2.03
4. A13R
2.34
5. I21A
2.49
6. S5A
2.51
